Measured values drawn from patent US20210070881A1 for this set.

- target-system: T1, recombinant BACE1 (BACE1 extracellular domain, R&D Systems Cat#931-AS) (UniProt P56817 22-457)
- T1 construct: extracellular domain; also called BACE1 extracellular domain protein
- T1 sequence (P56817 22-457): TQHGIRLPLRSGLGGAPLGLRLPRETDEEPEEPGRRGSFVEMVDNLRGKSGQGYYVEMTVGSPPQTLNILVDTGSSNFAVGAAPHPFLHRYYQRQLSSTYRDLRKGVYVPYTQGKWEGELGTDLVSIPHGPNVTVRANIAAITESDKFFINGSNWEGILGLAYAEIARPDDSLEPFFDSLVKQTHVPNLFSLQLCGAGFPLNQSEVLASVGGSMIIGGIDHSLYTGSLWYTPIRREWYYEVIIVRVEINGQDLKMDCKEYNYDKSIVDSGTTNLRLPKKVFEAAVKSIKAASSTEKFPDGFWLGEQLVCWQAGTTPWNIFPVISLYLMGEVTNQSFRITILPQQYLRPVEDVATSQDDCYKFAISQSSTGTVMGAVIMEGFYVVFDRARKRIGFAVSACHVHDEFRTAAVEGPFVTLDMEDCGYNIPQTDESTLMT
- protocol-description: SPR Biacore
recorded-metric: Kd (nM)

INSERT INTO measurements (binder, unit, result_number) VALUES
  ('2H8.40 (antibody, human IgG1, V domains shown, human IgG1/kappa; also called 2H8_HCvar4 + 2H8_LCvar7) VH: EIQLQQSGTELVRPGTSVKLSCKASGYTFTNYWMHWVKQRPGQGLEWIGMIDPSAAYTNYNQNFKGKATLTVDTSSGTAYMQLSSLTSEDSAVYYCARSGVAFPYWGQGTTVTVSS VL: DILMTQSQKFMSTSVGDRVSVTCKASQNVGRNVAWYQQISGQSPKPLIYSASHRYSGVPDRFTGSGSGTDFTLTISNVQSEDLVEFFCQQYNSYPYTFGGGTKLEIK', 'nM', 19.1),
  ('2H8.18 (antibody, human IgG1, V domains shown, human IgG1/kappa; also called 2H8_HCvar6 + 2H8_LCvar3) VH: EVQLQQSGAELVRPGTSVKLSCKASGYTFNNYWMHWVKQRPGQGLEWIGMIDPSDDDIKNNQKFKGKATLTVDTSSSTAYMQLISLTSEDSAVYYCARSGVALPYWGQGTLVTVSA VL: DIQMTQSQKFMSTSIGDRVSVTCKASQNVGTNVAWYQQKPGQSPKSLIYSASHWYSGVPDRFTGSGSGTDFTLTISNVQSEDLAEYFCQQYNSYPYTFGGGTKLEIK', 'nM', 32.4);
